target: EGFR L858R/C797S (Homo sapiens, UniProt P00533, C797S/L858R); test: Biochemical EGFR kinase assay (Lance Ultra TR-FRET), double mutant L858R/C797S; settings: IC50 L858R/C797S (nM) 100 μM ATP, 100 μM ATP
Sequence (P00533 25-1210 C797S/L858R): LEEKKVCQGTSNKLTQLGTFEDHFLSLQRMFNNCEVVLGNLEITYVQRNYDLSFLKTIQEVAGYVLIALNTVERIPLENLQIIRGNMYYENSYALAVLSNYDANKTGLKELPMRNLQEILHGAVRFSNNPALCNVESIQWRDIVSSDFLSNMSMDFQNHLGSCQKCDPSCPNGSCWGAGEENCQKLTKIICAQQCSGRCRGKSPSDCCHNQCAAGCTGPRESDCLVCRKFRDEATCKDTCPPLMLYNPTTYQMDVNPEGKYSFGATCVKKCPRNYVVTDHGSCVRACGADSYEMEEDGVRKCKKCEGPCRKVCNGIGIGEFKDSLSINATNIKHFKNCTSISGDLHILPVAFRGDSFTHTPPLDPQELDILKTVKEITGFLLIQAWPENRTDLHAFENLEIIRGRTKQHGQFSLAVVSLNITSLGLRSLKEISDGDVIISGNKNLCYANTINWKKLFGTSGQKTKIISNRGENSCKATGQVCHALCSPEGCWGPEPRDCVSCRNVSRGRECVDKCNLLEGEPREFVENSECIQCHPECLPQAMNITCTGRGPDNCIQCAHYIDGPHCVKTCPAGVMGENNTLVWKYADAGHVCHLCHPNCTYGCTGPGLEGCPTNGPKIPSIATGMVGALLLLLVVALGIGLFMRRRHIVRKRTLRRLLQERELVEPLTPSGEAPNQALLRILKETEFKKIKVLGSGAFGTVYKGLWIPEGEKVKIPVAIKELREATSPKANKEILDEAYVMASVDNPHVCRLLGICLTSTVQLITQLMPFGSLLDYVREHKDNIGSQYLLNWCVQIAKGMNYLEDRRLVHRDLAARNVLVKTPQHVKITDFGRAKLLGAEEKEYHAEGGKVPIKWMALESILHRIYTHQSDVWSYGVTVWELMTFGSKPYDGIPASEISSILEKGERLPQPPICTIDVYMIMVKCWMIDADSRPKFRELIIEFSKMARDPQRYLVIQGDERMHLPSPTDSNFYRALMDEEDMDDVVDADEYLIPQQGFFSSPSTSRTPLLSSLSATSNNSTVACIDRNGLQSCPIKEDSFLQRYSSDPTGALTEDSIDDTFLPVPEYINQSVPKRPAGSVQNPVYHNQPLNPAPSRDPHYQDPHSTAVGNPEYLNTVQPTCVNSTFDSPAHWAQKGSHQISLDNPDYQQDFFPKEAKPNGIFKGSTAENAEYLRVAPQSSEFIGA
ENDPOINT_LABEL: IC50 (nM)

Worked cases, answers included:
{"MOLECULE": "O=S(=O)(C1CC1)n1cc(-c2nccc(Nc3cc(NC4CC(O)C4)c(-c4ccn(C(F)F)n4)cn3)n2)cn1 (stereo not drawn) [Example 40]", "IC50 (nM)": 174}
{"MOLECULE": "Cn1nc(-c2cnc(Nc3ccnc(-c4cnn(S(=O)(=O)C5CC5)c4)n3)cc2N[C@H]2CC[C@@](C)(O)CC2)cc1C(F)(F)F [Example 252]", "IC50 (nM)": 9.8}
{"MOLECULE": "O=S(=O)(C1CC1)n1cc(-c2nccc(Nc3cc(NCC4CCCC(O)C4)c(-c4ccn(C(F)F)n4)cn3)n2)cn1 (stereo not drawn) [Example 32]", "IC50 (nM)": 45.2}
{"MOLECULE": "CC(C)(O)Cn1cc(-c2nccc(Nc3cc(N[C@H]4CC[C@@](C)(O)CC4)c(-c4ccn(C(F)F)n4)cn3)n2)cn1 [Example 142]", "IC50 (nM)": 37.5}

I = O=C1CC[C@]2(CC[C@H](Nc3cc(Nc4ccnc(-c5cnn(S(=O)(=O)C6CC6)c5)n4)ncc3-c3csc(C(F)(F)F)n3)CC2)N1 [Example 52]
II = C[C@]1(O)CC[C@@H](Nc2cc(Nc3ccnc(-c4cnn(S(=O)(=O)C5CC5)c4)n3)ncc2-c2csc(N3CCOCC3)n2)CC1 [Example 120]
Request: Which has the higher IC50, I or II ? Let me know the label of the one you choose.
Response: II
(II: 41.7 nM, I: 10 nM)

----------
target: EGFR del19/T790M/C797S (Homo sapiens, UniProt P00533, C797S/DEL746-750/T790M); assay: Biochemical EGFR kinase assay (Lance Ultra TR-FRET), triple mutant del19/T790M/C797S; details: Km ATP; read-out: IC50 del19/T790M/C797S (nM) Km ATP
Sequence (P00533 with tags, fused parts or gaps DEL746-750/T790M/C797S): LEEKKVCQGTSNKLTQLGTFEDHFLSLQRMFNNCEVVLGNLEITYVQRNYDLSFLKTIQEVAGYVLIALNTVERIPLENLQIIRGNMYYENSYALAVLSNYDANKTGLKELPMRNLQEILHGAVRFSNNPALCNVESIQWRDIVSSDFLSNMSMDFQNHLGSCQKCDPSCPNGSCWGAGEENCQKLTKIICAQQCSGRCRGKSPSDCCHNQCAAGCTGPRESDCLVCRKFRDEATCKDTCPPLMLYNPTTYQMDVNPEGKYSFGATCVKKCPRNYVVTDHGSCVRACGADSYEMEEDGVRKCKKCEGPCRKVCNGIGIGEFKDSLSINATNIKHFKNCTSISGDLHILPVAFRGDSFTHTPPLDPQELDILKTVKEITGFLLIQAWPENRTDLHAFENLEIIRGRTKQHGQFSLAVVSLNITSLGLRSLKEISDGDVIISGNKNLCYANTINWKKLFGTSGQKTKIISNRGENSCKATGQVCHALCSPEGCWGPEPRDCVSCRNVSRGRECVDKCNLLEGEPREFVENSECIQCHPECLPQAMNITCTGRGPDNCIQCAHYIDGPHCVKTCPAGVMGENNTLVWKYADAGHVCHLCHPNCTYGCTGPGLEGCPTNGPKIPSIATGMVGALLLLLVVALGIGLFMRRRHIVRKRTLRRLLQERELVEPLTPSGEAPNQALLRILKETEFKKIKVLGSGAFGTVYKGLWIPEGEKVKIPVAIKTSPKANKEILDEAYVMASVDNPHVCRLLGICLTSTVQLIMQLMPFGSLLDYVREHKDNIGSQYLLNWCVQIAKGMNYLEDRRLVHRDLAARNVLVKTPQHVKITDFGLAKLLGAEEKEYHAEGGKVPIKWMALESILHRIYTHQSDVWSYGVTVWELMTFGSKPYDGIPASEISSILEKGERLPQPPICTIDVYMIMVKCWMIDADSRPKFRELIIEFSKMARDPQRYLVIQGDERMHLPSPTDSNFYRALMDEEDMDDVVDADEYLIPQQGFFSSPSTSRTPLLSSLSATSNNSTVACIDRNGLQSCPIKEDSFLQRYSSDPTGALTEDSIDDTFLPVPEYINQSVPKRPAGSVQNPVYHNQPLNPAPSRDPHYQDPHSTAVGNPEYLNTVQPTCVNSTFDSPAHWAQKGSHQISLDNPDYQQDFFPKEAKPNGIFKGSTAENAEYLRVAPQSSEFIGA
ENDPOINT_LABEL: IC50 (nM)

Worked cases, answers included:
{"COMPOUND": "CC(C)Nc1cc(Nc2ccnc(-c3cnn(S(=O)(=O)C4CC4)c3)n2)ncc1-c1ccn(C(F)F)n1 [Example 144]", "ENDPOINT_LABEL": "IC50", "UNIT_TAG": "nM", "READING": 1.2}
{"COMPOUND": "C[C@]1(O)CC[C@@H](Nc2cc(Nc3ccnc(-c4cnn(S(=O)(=O)N5CC(F)C5)c4)n3)ncc2-c2ccn(C(F)F)n2)CC1 [Example 324]", "ENDPOINT_LABEL": "IC50", "UNIT_TAG": "nM", "READING": 4.6}

a = O=S(=O)(C1CC1)n1cc(-c2nccc(Nc3cc(NC4CCC(F)(CO)CC4)c(-c4ccn(C(F)F)n4)cn3)n2)cn1 (centres unmarked) [Example 190]
b = COCC#Cc1nccc(Nc2cc(NC3CCC(C)(O)CC3)c(-c3ccn(C(F)F)n3)cn2)n1 (centres unmarked) [Example 104]
c = CS(=O)(=O)N1CC=C(c2nccc(Nc3cc(N[C@H]4CC[C@@](C)(O)CC4)c(-c4ccn(C(F)F)n4)cn3)n2)CC1 [Example 156]
Request: Arrange items by their IC50 values in increasing order. Provide your answer as the labels ordered per the instruction.
Response: a, b, c
(a: 0.9 nM, b: 4.3 nM, c: 35.2 nM)
